assay: chemical genetic growth profiling, strain panel (AID 1159580);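 also: tested at 20 µM; growth read once vehicle control cultures reached saturation at 30 °C; 1 = growth at the plate median or of vehicle wells; lower values mean less growth of the strain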; conditions: S. cerevisiae deletion strains, growth OD, locus YLR384C, strain iki3
The whole screen tested about 5,500 compounds, of which about 2,000 (36%) were called active. Not shown: some 18% with an inconclusive outcome. Rule as the data show it: active = normalized growth mostly below about 0.91 (no sharp cut-off); inconclusive = no clear call, values can overlap the other calls; inactive = mostly above about 0.92. The list shows a part of the results.
Possible outcomes: active, inactive

{"Substance Smiles": "O=c1c(O)c(-c2ccc(O)c(O)c2)oc2cc(O)ccc12", "Answer Label": "inactive"}
{"Substance Smiles": "O=C(OC[C@H]1O[C@H](OC(=O)c2cc(O)c(O)c(OC(=O)c3cc(O)c(O)c(O)c3)c2)[C@H](OC(=O)c2cc(O)c(O)c(OC(=O)c3cc(O)c(O)c(O)c3)c2)[C@@H](OC(=O)c2cc(O)c(O)c(OC(=O)c3cc(O)c(O)c(O)c3)c2)[C@@H]1OC(=O)c1cc(O)c(O)c(OC(=O)c2cc(O)c(O)c(O)c2)c1)c1cc(O)c(O)c(OC(=O)c2cc(O)c(O)c(O)c2)c1", "Answer Label": "active"}

----------
test: chemical genetic growth profiling, strain panel (AID 1159580);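 also: tested at 20 µM; growth read once vehicle control cultures reached saturation at 30 °C; 1 = growth at the plate median or of vehicle wells; lower values mean less growth of the strain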; details: S. cerevisiae deletion strains, growth OD, locus YDR069C, strain doa4, active compounds read low
Hit rate of the full screen: of about 5,500 compounds, about 2,000 (36%) were called active. Inconclusive results (about 18%) are left out. The list shows a part of the results. Where a SMILES comes first, the peptide text is derived from it. Bridges are numbered along the chain shown (N, C = ends). Side-chain parts run from the residue outwards. [ ]: non-standard residue; d: D form. The star is where a group is joined. Octanoyl(6-Me) = CCC(C)CCCCC(=O)*; X1 = CCC(C)C(N)C1=NC(C(=O)*)CS1; Orn = NCCC[CH](N)C(=O)O; Dab = NCC[CH](N)C(=O)O
Here the recorded normalized growth is given for each entry.

{"Compound": "CC1(C)C=Cc2cc3ccc(=O)oc3cc2O1", "normalized growth": 0.958}
{"Compound": "COc1cc2c(cc1OC)[C@@]13CCN4CC5=CCOC6CC(=O)N2C1[C@H]6[C@H]5C[C@H]43 (stereo partly specified)", "normalized growth": 1}
{"Compound": "CCC(C)C(N)C1=NC(C(=O)NC(CC(C)C)C(=O)NC(CCC(=O)O)C(=O)NC(C(=O)NCCCCC2NC(=O)C(CC(N)=O)NC(=O)C(CC(=O)O)NC(=O)C(Cc3cnc[nH]3)NC(=O)C(Cc3ccccc3)NC(=O)C(C(C)CC)NC(=O)C(CCCN)NC2=O)C(C)CC)CS1 (stereo not drawn) (cyclo(DNK([Ile-Glu-Leu-X1])[Orn]IFH); configuration not given here)", "normalized growth": 1.02}
{"Compound": "NC[C@H]1O[C@H](O[C@H]2C(O[C@@H]3O[C@H](CO)[C@@H](O)[C@H]3O)[C@@H](O)[C@H](N)C[C@@H]2N)[C@H](N)[C@@H](O)[C@@H]1O (stereo partly specified)", "normalized growth": 0.99}
{"Compound": "CN(C)C(=N)N=C(N)N", "normalized growth": 0.984}
{"Compound": "CCC(C)CCCCC(=O)NC(CCN)C(=O)NC(C(=O)NC(CCN)C(=O)NC1CCNC(=O)C(C(C)O)NC(=O)C(CCN)NC(=O)C(CCN)NC(=O)C(CC(C)C)NC(=O)C(Cc2ccccc2)NC(=O)C(CCN)NC1=O)C(C)O (stereo unspecified) ({Octanoyl(6-Me)}-[Dab]T[Dab][Dab][Dab]FL[Dab][Dab]T; lactam 4-C; configuration not given here)", "normalized growth": 0.989}
